Test system: NCI-H322M
Test: relative viability (nuclei count vs DMSO), 5 days (fraction); higher = more cells survive
Details: first compound 0.005 µM
// reported relative viability for each item listed

Before answering, review these 3 worked examples.
{"COMPOUND": "CC1(C)CCC(c2ccc(Cl)cc2)=C(CN2CCN(c3ccc(C(=O)NS(=O)(=O)c4ccc(N[C@H](CCN5CCOCC5)CSc5ccccc5)c(S(=O)(=O)C(F)(F)F)c4)cc3)CC2)C1 [Navitoclax] + O=C(CCCCCCC(=O)Nc1ccccc1)NO [Vorinostat] (partner 1 µM)", "MEASURED_ON": "NCI-H322M", "relative viability": 1.02}
{"COMPOUND": "CC1(C)CCC(c2ccc(Cl)cc2)=C(CN2CCN(c3ccc(C(=O)NS(=O)(=O)c4ccc(N[C@H](CCN5CCOCC5)CSc5ccccc5)c(S(=O)(=O)C(F)(F)F)c4)cc3)CC2)C1 [Navitoclax] + COc1cc2c(Oc3ccc(NC(=O)C4(C(=O)Nc5ccc(F)cc5)CC4)cc3F)ccnc2cc1OCCCN1CCOCC1 [Foretinib] (partner 0.25 µM)", "MEASURED_ON": "NCI-H322M", "relative viability": 1.03}
{"COMPOUND": "CC1(C)CCC(c2ccc(Cl)cc2)=C(CN2CCN(c3ccc(C(=O)NS(=O)(=O)c4ccc(N[C@H](CCN5CCOCC5)CSc5ccccc5)c(S(=O)(=O)C(F)(F)F)c4)cc3)CC2)C1 [Navitoclax] + CC(=O)Nc1cccc(-n2c(=O)n(C3CC3)c(=O)c3c(Nc4ccc(I)cc4F)n(C)c(=O)c(C)c32)c1 [Trametinib] (partner 0.02 µM)", "MEASURED_ON": "NCI-H322M", "relative viability": 0.538}

Query: Fill in reported relative viability for this entry: CC1(C)CCC(c2ccc(Cl)cc2)=C(CN2CCN(c3ccc(C(=O)NS(=O)(=O)c4ccc(N[C@H](CCN5CCOCC5)CSc5ccccc5)c(S(=O)(=O)C(F)(F)F)c4)cc3)CC2)C1 [Navitoclax] + NC(=O)Nc1cc(-c2cccc(F)c2)sc1C(=O)N[C@H]1CCCNC1 [AZD7762] (partner 0.2 µM)
Response: 0.648
